FYI, the data here is from the supplement of paper PMC10567573.

protein stability index values by entry
B1: ZNF8 (parent)
chain: VHVIGVEEPSVGASMLFDIREST

variants of: B1; assay: protein stability index of a GFP-peptide fusion (GPS, HEK-293T) (PSI 1-6); higher = more stable; conditions: c terminus: native;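 further: lentivirally expressed fusions sorted by FACS into six bins by GFP to DsRed ratio, PSI derived from sequencing read proportions per bin multiplied by bin number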

{"Construct Sequence": "VHVIGVEEPSVGASMLFDAREST", "protein stability index": 3.07}
{"Construct Sequence": "VHVIGVEEPSVGASMLFDIDEST", "protein stability index": 2.96}
{"Construct Sequence": "VHVIGVEEPSVGASMLFDGREST", "protein stability index": 2.72}
{"Construct Sequence": "VHVIGVECPSVGASMLFDIREST", "protein stability index": 3.48}
{"Construct Sequence": "VHVIGVMEPSVGASMLFDIREST", "protein stability index": 2.14}
{"Construct Sequence": "VHVNGVEEPSVGASMLFDIREST", "protein stability index": 3.43}
{"Construct Sequence": "VHVIGVEEPSVGADMLFDIREST", "protein stability index": 2.62}
{"Construct Sequence": "VHVIGVEEPSVGASMLFWIREST", "protein stability index": 2.19}
{"Construct Sequence": "VHVIGVEEPSVGAEMLFDIREST", "protein stability index": 2.28}
{"Construct Sequence": "VHVIGVEEPSGGASMLFDIREST", "protein stability index": 2.28}
{"Construct Sequence": "VHVIGVEEPSVGAFMLFDIREST", "protein stability index": 2.28}
{"Construct Sequence": "VHVIGVEEPSVGASMLFDEREST", "protein stability index": 3.34}
{"Construct Sequence": "VHVIGVEEPSVGASMLFNIREST", "protein stability index": 2.48}
{"Construct Sequence": "VWVIGVEEPSVGASMLFDIREST", "protein stability index": 2.25}
{"Construct Sequence": "VHVIGVEEPSVGASMLLDIREST", "protein stability index": 2.03}
{"Construct Sequence": "VHVIGVEEPSVGASMLFDIRESD", "protein stability index": 2.37}
{"Construct Sequence": "VHVIGVEEPSVGASMLFDIRESL", "protein stability index": 1.79}
{"Construct Sequence": "VHVIGVEEPSVGESMLFDIREST", "protein stability index": 2.61}
{"Construct Sequence": "VHVIGVEEPSVGASMLFDFREST", "protein stability index": 1.64}
{"Construct Sequence": "VHWIGVEEPSVGASMLFDIREST", "protein stability index": 1.47}
{"Construct Sequence": "VHQIGVEEPSVGASMLFDIREST", "protein stability index": 3.87}
{"Construct Sequence": "VHVIGVEEPSVGASMLFDIREGT", "protein stability index": 1.79}
{"Construct Sequence": "VHVIGVEEPSVGASMLFDIREFT", "protein stability index": 2.23}
{"Construct Sequence": "VHVIGVKEPSVGASMLFDIREST", "protein stability index": 1.72}
{"Construct Sequence": "VHVIGVEEPSVGASMLFDIRNST", "protein stability index": 2.08}
{"Construct Sequence": "VHVIGVEELSVGASMLFDIREST", "protein stability index": 2.23}
{"Construct Sequence": "DHVIGVEEPSVGASMLFDIREST", "protein stability index": 3.96}
{"Construct Sequence": "VHVIGVEEPSVGASMLFHIREST", "protein stability index": 1.39}
{"Construct Sequence": "VHVIGVEEESVGASMLFDIREST", "protein stability index": 2.44}
{"Construct Sequence": "LHVIGVEEPSVGASMLFDIREST", "protein stability index": 1.79}
{"Construct Sequence": "VHVQGVEEPSVGASMLFDIREST", "protein stability index": 3.47}
{"Construct Sequence": "VHVRGVEEPSVGASMLFDIREST", "protein stability index": 2.9}
{"Construct Sequence": "VHVIGVEEPSVGASILFDIREST", "protein stability index": 2.59}
{"Construct Sequence": "VHVIGVEEPSAGASMLFDIREST", "protein stability index": 2.38}
{"Construct Sequence": "VHVIGVEEPVVGASMLFDIREST", "protein stability index": 2.16}
{"Construct Sequence": "VHVIGVEEPSVWASMLFDIREST", "protein stability index": 2.88}
{"Construct Sequence": "VHVIGVEEPSVGAAMLFDIREST", "protein stability index": 1.86}
{"Construct Sequence": "VHVIGVEEPSVGASMLFDDREST", "protein stability index": 3.65}
{"Construct Sequence": "VHVIGVEEPSVGASMLYDIREST", "protein stability index": 2.15}
{"Construct Sequence": "VHVIGVEWPSVGASMLFDIREST", "protein stability index": 4.73}
{"Construct Sequence": "GHVIGVEEPSVGASMLFDIREST", "protein stability index": 3.85}
{"Construct Sequence": "VHVIAVEEPSVGASMLFDIREST", "protein stability index": 1.63}
